- MEASURED ON: Serine/threonine-protein kinase PLK1 (Homo sapiens) (UniProt P53350)
- Sequence (P53350 whole entry, looked up, the tested form may be a part): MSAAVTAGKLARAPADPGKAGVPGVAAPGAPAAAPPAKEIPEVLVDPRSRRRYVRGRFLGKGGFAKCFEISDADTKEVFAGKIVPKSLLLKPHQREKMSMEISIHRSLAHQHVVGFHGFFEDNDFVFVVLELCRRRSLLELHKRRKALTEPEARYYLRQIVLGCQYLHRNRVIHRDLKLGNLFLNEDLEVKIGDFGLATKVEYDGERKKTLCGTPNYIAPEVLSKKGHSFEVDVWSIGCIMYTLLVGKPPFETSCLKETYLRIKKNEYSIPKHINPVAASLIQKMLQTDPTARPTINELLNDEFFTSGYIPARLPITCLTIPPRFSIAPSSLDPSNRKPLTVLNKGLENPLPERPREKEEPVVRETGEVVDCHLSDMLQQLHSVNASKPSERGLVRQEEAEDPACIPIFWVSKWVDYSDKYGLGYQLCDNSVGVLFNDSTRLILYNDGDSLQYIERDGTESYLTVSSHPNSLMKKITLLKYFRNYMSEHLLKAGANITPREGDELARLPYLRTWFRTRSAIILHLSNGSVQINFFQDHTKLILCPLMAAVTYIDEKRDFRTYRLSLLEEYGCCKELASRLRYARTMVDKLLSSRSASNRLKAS
- ASSAY COMMENT: qHTS for Inhibitors of PLK1-PDB (polo-like kinase 1 - polo-box domain): Primary Screen; also: nearly all actives have a fitted effect of over 65% in size; as to max response, negative = inhibition: series mostly up to about 57 µM; % is scaled to controls: 0 for no effect and ±100 for the full control effect
- PARTICULARS: Plk1 PBD binding of FITC phosphopeptide, fluorescence polarization
Out of some 360,000 compounds screened, about 10,000 (2.8%) were called active. Roughly 4% stayed inconclusive and do not appear here. For the sample, actives were picked, then their nearest neighbours and some compounds at random.
Below: a set of entries, each annotated with reported max response, negative = inhibition.
Number only, in %; omit the unit.

| MOLECULE | MEASURED ON | max response, negative = inhibition [%] |
| --- | --- | --- |
| CCc1nc2ccc(C(=O)Nc3cc(-c4ccccc4)ccc3OC)cn2c1N(CC)CC(=O)N(C)C | Serine/threonine-protein kinase PLK1 (Homo sapiens) (UniProt P53350) | -4.06 |
| OC[C@@H]1CN(Cc2ccc3c(c2)OCO3)C[C@H](n2cnc3c(NCc4ccco4)ncnc32)O1 | Serine/threonine-protein kinase PLK1 (Homo sapiens) (UniProt P53350) | -2.35 |
| CN1CCN(C(=O)Cn2c(C(F)(F)F)nc3ccccc32)CC1 | Serine/threonine-protein kinase PLK1 (Homo sapiens) (UniProt P53350) | -6.38 |
| O=C1CCNCCN1[C@H](CO)Cc1ccccc1 | Serine/threonine-protein kinase PLK1 (Homo sapiens) (UniProt P53350) | -3.76 |
| C=CCOc1cccc(C2C(C(=O)c3ccc(C)o3)=C(O)C(=O)N2CCN2CCOCC2)c1 (configuration not stated) | Serine/threonine-protein kinase PLK1 (Homo sapiens) (UniProt P53350) | -19.4 |
| COC(=O)c1cccc(N2C(=O)C3C4C=CC(CC4)C3C2=O)c1 (configuration not stated) | Serine/threonine-protein kinase PLK1 (Homo sapiens) (UniProt P53350) | -4.67 |
| COc1cc(C(O)c2nc(-c3cccc(C(=O)O)c3)cs2)ccc1F (configuration not stated) | Serine/threonine-protein kinase PLK1 (Homo sapiens) (UniProt P53350) | 2.95 |
| Cc1cc(N2C(=O)C(=O)/C(=C(/O)c3ccccc3)C2c2cccc(Br)c2)no1 (configuration not stated) | Serine/threonine-protein kinase PLK1 (Homo sapiens) (UniProt P53350) | -15 |
| Cc1ccc(C)c(S(=O)(=O)N2CCN(C(=O)Nc3ccccc3)CC2)c1 | Serine/threonine-protein kinase PLK1 (Homo sapiens) (UniProt P53350) | -2.91 |
| Cc1ccccc1-c1nc(NC(C)C)nc2cc(-c3ccccc3)sc12 | Serine/threonine-protein kinase PLK1 (Homo sapiens) (UniProt P53350) | -6.2 |

Please report the recorded max response, negative = inhibition for COc1ccc(C2C(C#N)=C(/N=C/N3CCOCC3)OC3=C2C(=O)CC(C)(C)C3)cc1OC (configuration not stated) . -6.22

Please report the recorded max response, negative = inhibition for NC(CSC(c1ccccc1)(c1ccccc1)c1ccc(-c2ccccc2)cc1)C(=O)O (configuration not stated) . -12.6

Please report the recorded max response, negative = inhibition for COc1cc(CNC2CCCC2)c(Br)cc1OCc1ccccc1 . -0.667

Please report the recorded max response, negative = inhibition for COCC(C)NC(=O)c1ccc(Cl)c(Cl)c1 (configuration not stated) . -9.11

Please report the recorded max response, negative = inhibition for NCCCCC(C(=O)O)N(C(=O)OCc1ccccc1)C(=O)OCc1ccccc1 (configuration not stated) . -19.2

Please report the recorded max response, negative = inhibition for CC1(C(=O)NS(=O)(=O)c2cccs2)CCN1C(=O)Cc1ccc(-c2ccccc2)cc1 (configuration not stated) . -1.09

Please report the recorded max response, negative = inhibition for Cc1ccc(S(=O)(=O)N2CC(=O)Nc3ccccc32)cc1C . -4.98

Please report the recorded max response, negative = inhibition for O=C(c1cc(C2CCCCN2S(=O)(=O)c2ccccc2)on1)N1CCOCC1 (configuration not stated) . 3.83

Please report the recorded max response, negative = inhibition for COC(=O)c1ccc2nc(-c3ccccc3)c(Cc3ccc(OC)cc3C)n2c1 . -8.32

Please report the recorded max response, negative = inhibition for COc1ccccc1N1CC(C(=O)Nc2nnc(SCC(=O)NC(C)C)s2)CC1=O (configuration not stated) . -26.4

Please report the recorded max response, negative = inhibition for O=C(Nc1ccc(N2CCOCC2)cc1)c1ccc(-c2ccccc2[N+](=O)[O-])o1 . -4.38

Please report the recorded max response, negative = inhibition for CCCCCCNC(=O)O[C@H]1CN(C(=O)OC(C)C)N(C(=O)OC(C)C)[C@@H]2CN(S(=O)(=O)c3ccc(C)cc3)C[C@]12O . -12.5

Please report the recorded max response, negative = inhibition for Cc1cccc(NC(=O)C(C)SCc2ccccc2)c1 (configuration not stated) . -10.4

Please report the recorded max response, negative = inhibition for Cc1nnc(Sc2nc3c(c(=O)[nH]c(=O)n3C)n2Cc2ccccc2)s1 . 0.479

Please report the recorded max response, negative = inhibition for CCOC(=O)c1ccc(NC(=O)C2CC(=O)N(c3ccc4c(c3)OCCO4)C2)cc1 (configuration not stated) . -3.19

Please report the recorded max response, negative = inhibition for CCCCOCCCNC(=O)C[C@@H]1C[C@@]2(C(=O)OCC)CCCC=C2N(CCC2=CCCCC2)C1=O . 4

----------
- MEASURED ON: Serine/threonine-protein kinase PLK1 (Homo sapiens)
- ASSAY COMMENT: qHTS for Inhibitors of PLK1-PDB (polo-like kinase 1 - polo-box domain): Primary Screen; also: nearly all actives have a fitted effect of over 65% in size; also: potency is read from the fitted curve at half-maximal effect
- PARTICULARS: Plk1 PBD binding of FITC phosphopeptide, fluorescence polarization
Among all 360,000 compounds or so, about 10,000 (2.8%) were called active. Roughly 4% stayed inconclusive and do not appear here. Many of the other results were omitted from the sample, so actives are more common in it than they were.
VALUE TYPE: Potency

Example compounds with recorded Potency:
| COMPOUND | OBSERVED |
| --- | --- |
| O=C(c1ccccc1Oc1ccccc1)N1CCN(c2ccc(F)cc2)CC1 | 26.7 µM (active) |
| CCn1c(SCC(=O)Nc2nc(C)cs2)nnc1C(C)NC(=O)c1ccccc1 (stereo not drawn) | 29.9 µM (active) |

Please report the recorded Potency for COc1ccc(C(=O)N2CCC(C(=O)Nc3ccc(C)cc3)CC2)cc1 . 3.36 µM (active)

Please report the recorded Potency for O=C(c1ccc(F)cc1)n1c(=S)nc2ccccn21 . 26.7 µM (active)

Please report the recorded Potency for O=C(Nc1nccs1)C1CCCN1S(=O)(=O)c1cccc2cccnc12 (stereo not drawn) . 26.7 µM (active)

Please report the recorded Potency for C[C@@H](NC(=O)OC(C)(C)C)c1nnc(S(=O)(=O)Cc2ccccc2)o1 . 13.4 µM (active)

Please report the recorded Potency for Fc1ccc(Nc2nnns2)cc1 . 13.4 µM (active)

Please report the recorded Potency for Cc1ccc(Cl)c(OCC(=O)NN2CCN(C)CC2)c1 . 23.8 µM (active)

Please report the recorded Potency for O=C(CCc1[nH]c2ccccc2c1Sc1ccccc1)N(CCO)CCO . 29.9 µM (active)

Please report the recorded Potency for CN(C)CCOC1c2ccccc2-c2ccccc21 . 29.9 µM (active)

----------
- MEASURED ON: Serine/threonine-protein kinase PLK1 (Homo sapiens)
- ASSAY COMMENT: qHTS for Inhibitors of PLK1-PDB (polo-like kinase 1 - polo-box domain): Primary Screen; also: nearly all actives have a fitted effect of over 65% in size; as to max response, negative = inhibition: series mostly up to about 57 µM; % is scaled to controls: 0 for no effect and ±100 for the full control effect
- PARTICULARS: Plk1 PBD binding of FITC phosphopeptide, fluorescence polarization
Screen size: about 360,000 compounds; about 10,000 (2.8%) were called active. Not shown: some 4% with an inconclusive outcome. This excerpt belongs to a sample that is enriched for actives.
VALUE TYPE: max response, negative = inhibition (%)
Number only, in %; omit the unit.

| COMPOUND | max response, negative = inhibition [%] |
| --- | --- |
| COc1ccc(CCNC(=O)CS(=O)(=O)Cc2nc(-c3ccc(C)cc3)oc2C)cc1OC | -18.7 |
| O=C(c1ccc(F)cc1)N1CCC(n2nnc3ccccc32)CC1 | -7.84 |
| Cc1ccc(CN2CC(N3CCC(Cc4ccccc4)CC3)CS2(=O)=O)cc1 (stereo not given) | -6.9 |
| O=C(NCc1cccnc1)c1cc(C2CCCN(C(=O)CCCc3ccccc3)C2)on1 (stereo not given) | 7.06 |
| CC(=O)Nc1nc(N(C)C)nc(N(C)C)n1 | 6.17 |

Please report the recorded max response, negative = inhibition for COc1ccc(-c2cnc3c(c2)C(=O)N([C@H](C)CO)C[C@@H](C)[C@H](CN(C)Cc2ccccc2)O3)cc1 . -12.1

Please report the recorded max response, negative = inhibition for O[C@H]1C[C@H](c2ccc(Cl)cc2)N(Cc2cccs2)C[C@@H]1n1cc(C2CC2)nn1 . -4.6

Please report the recorded max response, negative = inhibition for CC(=O)Nc1ccc2nc(NC(=O)CS(=O)(=O)c3ccc(F)cc3)sc2c1 . -4.56

Please report the recorded max response, negative = inhibition for COc1ccc(C(=O)CSc2nccc(=O)[nH]2)cc1 . -2.62

Please report the recorded max response, negative = inhibition for C[C@H]1CN([C@@H](C)CO)C(=O)c2cc(Br)cnc2O[C@H]1CN(C)S(=O)(=O)c1cccs1 . -9.15
